Tested on: HCT-15 colon
Experiment description: NCI-60 one-dose screen, 48 h (100 = growth as untreated, 0 = no growth, -100 = all killed)
Experimental setup: 10 µM unless noted
This is part of a sample that, as a whole, favours compounds with a hit. Of some 83,000 tested, about 20% had one in any assay.

# Compound, Tested system, growth, %
records = [
    ("O=S(=O)(Nc1cccc(Cl)c1)c1ccc(-c2cnc(C3CC3)o2)cc1", "HCT-15 colon", 23.9),
    ("COc1ccc(NC(=O)CSc2nnc(-c3cc(-c4ccccc4)nc4ccccc34)n2-c2ccccc2)cc1", "HCT-15 colon", 95.4),
    ("COc1ccc(/C=c2\\nc3n(-c4ccccc4)c4nc5c6c(sc5c(=N)n4n-3c2=O)CCCC6)cc1", "HCT-15 colon", 40.7),
    ("COC(=O)[C@H](CSC)N(C)C(=O)[C@@H]1CSSC[C@@H](NC(=O)c2nc3ccccc3cc2O)C(=O)NCC(=O)N1C", "HCT-15 colon", 99.1),
    ("O=c1[nH]nc(-c2ccccc2)c2c(-c3ccccc3)onc12", "HCT-15 colon", 32.2),
    ("CCOC(=O)c1c(/C=C/C(=O)O)nc2ccccc2c1/C=C/c1ccccc1", "HCT-15 colon", 23.9),
    ("Nc1nc(N)c2c(n1)NC(c1ccccc1)C1CCc3ccccc3C1=N2 (configuration not stated)", "HCT-15 colon", 39),
]

----------
System: HOP-62 NSCLC
Experiment description: NCI-60 one-dose screen, 48 h
Experimental setup: 10 µM unless noted
About 83,000 compounds went through this panel and 20% of them were active in at least one assay; those are over-represented in the sample as a whole. Active and inactive are the calls of the source. Rule for the calls: active = growth percent below 10; inactive = the rest.
Labels: TRUE for active, FALSE for inactive

# Molecule, Label class
records = [
    ("CC1CC(C(C)(C)C)C(=O)C(C(C)(C)C)C1 (stereo not drawn)", "FALSE"),
    ("CC1(C)CC(=O)CC2(C1)N=C(N)Nc1nc3ccccc3n12 (stereo not drawn)", "FALSE"),
    ("O=C(c1ccc(Nc2nccc(NCCCCNc3ccnc4cc(Cl)ccc34)n2)cc1)N1CCCCC1", "FALSE"),
    ("Cc1ccc(-c2c(-c3ccccc3)c(=O)oc3ccc(C)cc23)cc1", "FALSE"),
    ("CC(=O)c1ccc(NCC(=O)Nc2ccccn2)cc1", "FALSE"),
    ("O=C1/C(=C/c2ccc(F)cc2)C=C(c2ccccc2)N1CCc1ccccc1", "TRUE"),
    ("COc1ccc2c(c1)C(=O)/C(=C/c1ccc(OCC(=O)Nc3nccs3)cc1)O2", "FALSE"),
    ("COc1cc(/C=C/C(=O)N2CCN(C(=O)c3cc(OC)c(OC)c(OC)c3)CC2)ccc1OCCCN1C(=O)c2cccc3cccc(c23)C1=O", "FALSE"),
    ("CCN(CC)c1ccc(C(=O)c2ccc(N(CC)CC)cc2)cc1", "FALSE"),
    ("COc1cc(/C=N/NC(=O)Cn2c(C(C)C)nc3ccccc32)ccc1O", "FALSE"),
    ("COc1cccc(-c2nn(-c3ccccc3)cc2-c2ccnc(NCCCNC(=O)c3ccc(F)cc3)c2)c1", "FALSE"),
    ("CC1=C(SCCC(=O)OC(C[Se]C2=C(C)C(=O)c3ccccc3C2=O)C(=O)NCCCCCC(=O)OCc2ccccc2)C(=O)c2ccccc2C1=O (stereo not drawn)", "FALSE"),
    ("Cc1ccc(C2SCC(=O)N2Cc2ccccc2)cc1 (stereo not drawn)", "FALSE"),
]

----------
System: NCI-H23 lung
Experiment description: NCI-60 one-dose screen, 48 h
Experimental setup: 10 µM unless noted
This is part of a sample that, as a whole, favours compounds with a hit. Of some 83,000 tested, about 20% had one in any assay. Calls of active or inactive are those of the source. How the source made its calls: active means growth percent below 10; inactive means the rest.
Labels: active, inactive

# Molecule, Label class
measured = [
    ("COC(=O)[C@]12CC[C@@H](C)[C@H](C)[C@@H]1C1=CC[C@@H]3[C@@]4(C)C(C=O)=C[C@@](C)(COS(C)(=O)=O)[C@@H]4C(=O)C[C@@]3(C)[C@]1(C)CC2", "inactive"),
    ("CC(C)Sc1nc(NNC(N)=S)c(C#N)c(-c2ccc(F)cc2)n1", "inactive"),
    ("COc1ccc(/C=C/c2c(C(=O)/C=C/c3ccc(F)cc3)c(C)nc3ccccc23)cc1", "inactive"),
    ("COc1cc(C2CC(=O)Nc3c2c(C)nn3-c2nc3ccccc3[nH]2)cc2c1OCC(=O)N2 (stereo not given)", "inactive"),
    ("CC/C=C\\C/C=C\\C[C@H](O)C/C=C1/C(=O)C=C[C@@H]1C/C=C\\CCCC(=O)O", "inactive"),
    ("O=C(/C=C/c1c(Cl)nc2sccn12)c1nccs1", "inactive"),
    ("CC1SC(c2ccc(OCc3ccccc3)cc2)N(NC(=O)C(O)(c2ccccc2)c2ccccc2)C1=O (stereo not given)", "inactive"),
    ("CCN(CC)c1nc(SCC(=O)Nc2nc3ccc(C)cc3s2)nc(-c2ccccc2)c1C#N", "inactive"),
    ("O=C(c1ccc(Nc2nccc(NCCCCNc3ccnc4cc(Cl)ccc34)n2)cc1)N1CCCCC1", "inactive"),
    ("COc1ccc2occ(C3=C(c4c[nH]c5ccccc45)C(=O)N(O)C3=O)c2c1", "inactive"),
    ("CC1CC(C(C)(C)C)C(=O)C(C(C)(C)C)C1 (stereo not given)", "inactive"),
    ("Cc1c(C(=O)N[C@@H](Cc2ccccc2)C(=O)C(=O)NCCc2ccccc2)[nH]c2ccccc2c1=O", "inactive"),
    ("c1csc(-c2c3ccc(=[N+]4CCCCC4)cc-3oc3cc(N4CCCCC4)ccc23)c1", "active"),
    ("O=C(NCCNc1cc(-c2cn(-c3ccccc3)nc2-c2cccc(O)c2)ccn1)Nc1ccccc1", "inactive"),
    ("O=c1[nH]c2ccccc2n1C1CCN(CCOc2ccccc2)CC1", "inactive"),
]

----------
Tested on: SK-MEL-2 melanoma
Experiment description: NCI-60 one-dose screen, 48 h
Experimental setup: 10 µM unless noted
This is part of a sample that, as a whole, favours compounds with a hit. Of some 83,000 tested, about 20% had one in any assay. Calls of active or inactive are those of the source. How the source made its calls: active means growth percent below 10; inactive means the rest.
Labels: 1 = active, -1 = inactive

# Compound, Label class
rows = [
    ("CCCCCCCCCCCCCCCCCC1=NCCN1CCOC1=C(Cl)C(=O)c2ccccc2C1=O", -1),
    ("C[C@]12CC[C@@H]3c4cc(OC(F)F)c(O)cc4CC[C@H]3[C@@H]1CC[C@@H]2OS(N)(=O)=O", -1),
    ("CN(C)CC1C(=O)O[C@H]2[C@H]1CC/C(COC(=O)c1cc3ccccc3[nH]1)=C\\CC[C@@]1(C)O[C@@H]21 (some centres not stated)", 1),
    ("CN1CCN(CC(=O)Nc2nc(-c3cccc(NS(=O)(=O)c4cccc5c(N(C)C)cccc45)c3)cs2)CC1", -1),
    ("C=C1C(=O)O[C@H]2[C@H]1CC/C(CNC(=O)/C=C/c1ccc(Cl)cc1Cl)=C\\CC[C@@]1(C)O[C@@H]21", 1),
    ("COc1ccc(-c2csc(C3=C(O)CN(C(C)C)C3=N)n2)cc1OC", -1),
    ("COc1cc(C(=O)/C=C/c2c(-c3ccc(F)cc3)nc3sc(C)cn23)cc(OC)c1OC", -1),
    ("COc1ccc2oc3c(C)c4c(c(C)c3c2c1)C(=O)N(Cc1ccccc1)C4=O", -1),
    ("Cc1ccc2c(c1)Sc1c(ccc3ccccc13)N2", -1),
    ("Cc1cc(O)c(C2=NN(c3ccc(S(N)(=O)=O)cc3)C(c3ccccc3Cl)C2)cc1Cl (configuration not stated)", -1),
    ("Cc1cc[c-]cc1.Fc1c[c-]c(-c2ccccn2)c(F)c1.[Pt+2].c1ccc(P(C[PH+](c2ccccc2)c2ccccc2)c2ccccc2)cc1", 1),
    ("CC(C)C(NC(=O)C1(NC(=O)OCc2ccccc2)CCCC1)C(=O)O (configuration not stated)", -1),
]

----------
Test system: HCT-15 colon
Experiment description: NCI-60 one-dose screen, 48 h
Experimental setup: 10 µM unless noted
Compounds without any hit were thinned out: in the full panel of roughly 83,000, 20% have a hit. Calls of active or inactive are those of the source. How the source made its calls: active means growth percent below 10; inactive means the rest.
Labels: active, inactive

# Molecule, Label class
records = [
    ("NC(N)=Nc1nc2ccccc2n2c1nc1ccccc12", "inactive"),
    ("CCCCN(CCCC)CC(C)(C)C(O)c1ccc(OC)c2ccccc12 (centres undefined)", "inactive"),
    ("O=C1Nc2ccc(F)cc2C12Nc1cc(Cl)ccc1S2 (centres undefined)", "inactive"),
    ("Cc1cc(Cl)nc(NCc2cc(Nc3ccnc4cc(Cl)ccc34)ccc2F)n1", "inactive"),
    ("O=C1c2cccc(NCCN=Cc3cc([N+](=O)[O-])ccc3O)c2C(=O)c2c(NCCN=Cc3cc([N+](=O)[O-])ccc3O)cccc21", "inactive"),
    ("Cc1ccc(C2SCC(=O)N2Cc2ccccc2)cc1 (centres undefined)", "inactive"),
    ("N/C(=N\\c1nc2ccccc2s1)NC(=O)Nc1cccc(Cl)c1", "inactive"),
    ("CCOC(=O)c1c2c(n3ccc(NC(=O)OC(C)(C)C)cc13)C(=O)c1ncccc1C2=O", "active"),
    ("COc1cc(-c2nn(-c3ccccc3)cc2-c2ccnc(NCCNS(=O)(=O)c3ccc(Cl)cc3)n2)ccc1Cl", "inactive"),
    ("COc1ccc(-c2[nH]c(=S)n(C(CC3(C)NCC(=O)N3n3c(-c4ccccc4)cc(C)nc3=S)c3ccc(OC)cc3)c(=O)c2Br)cc1 (centres undefined)", "inactive"),
    ("CC1SC(c2ccc(OCc3ccccc3)cc2)N(NC(=O)C(O)(c2ccccc2)c2ccccc2)C1=O (centres undefined)", "inactive"),
    ("COc1cc(/C=C/C(=O)c2ccc(Nc3nc(Nc4ccc(F)cc4)nc(Nc4ccc(Cl)cc4)n3)cc2)cc(OC)c1OC", "inactive"),
    ("C=C(C)[C@@H]1CC[C@]2(C)[C@H](CC=C3[C@@H]4CC(C)(C)CC[C@]4(C(N)=O)CC[C@]32C)[C@@]1(C)CCC#N", "inactive"),
    ("CC(=O)c1ccc(NCC(=O)Nc2ccccn2)cc1", "inactive"),
    ("COc1cc2c(cc1-c1c(C)noc1C)ncc1nc(C3CCCCC3)n(C3CCC(OC(F)F)CC3)c12 (centres undefined)", "inactive"),
    ("O=[N+]([O-])c1ccc(N2c3ccncc3Sc3ccncc32)cc1", "inactive"),
    ("COC(=O)[C@]12CC[C@@H](C)[C@H](C)[C@@H]1C1=CC[C@@H]3[C@@]4(C)C(C=O)=C[C@@](C)(COC(C)=O)[C@@H]4C(=O)C[C@@]3(C)[C@]1(C)CC2", "inactive"),
    ("Cc1cc(NCc2cc(Nc3ccnc4cc(Cl)ccc34)ccc2F)nc(N2CCOCC2)n1", "inactive"),
    ("COC(=O)[C@]12CC[C@@H](C)[C@H](C)[C@@H]1C1=CC[C@@H]3[C@@]4(C)C(C=O)=C[C@@](C)(COS(C)(=O)=O)C4[C@H](O)C[C@@]3(C)[C@]1(C)CC2 (some centres undefined)", "active"),
]
